Overview of recorded IC50 for various molecules
- System: NF-kB reporter in Jurkat cells
- METHOD_NOTES: NF-kB reporter assay in Jurkat cells stimulated with aCD3/aCD28/PMA
- Format: cell-based
- ASSAY_CONDITIONS: Homo sapiens; Jurkat cells, 1 hr compound pre-incubation, aCD3/aCD28/PMA stimulation 4 hr, One-Glo readout; read-out: NF-kB Reporter Assay IC50

Examples with answers:
[
  {
    "MOLECULE": "CCC(C)(OC)c1ccnc(-n2cc(S(=O)(=O)Nc3c(OC)ccc4cnn(C)c34)cn2)c1 (single isomer, unassigned) [Compound I-360]",
    "PARAMETER_MEASURED": "IC50",
    "RESULT": "< 400 nM"
  },
  {
    "MOLECULE": "COc1ccc2cnn(C)c2c1NS(=O)(=O)c1cnn(-c2cc(N3CC(C#N)C3)ccn2)c1 [Compound I-454]",
    "PARAMETER_MEASURED": "IC50",
    "RESULT": "400 to 1000 nM"
  },
  {
    "MOLECULE": "COc1ccc2cnn(C)c2c1NS(=O)(=O)c1cnn(-c2cc(C(F)(F)F)ncn2)c1 [Compound I-24]",
    "PARAMETER_MEASURED": "IC50",
    "RESULT": "400 to 1000 nM"
  },
  {
    "MOLECULE": "[2H]C([2H])([2H])n1ncc2ccc(OC)c(NS(=O)(=O)c3cnn(-c4cc(C(C)(F)F)ccn4)c3)c21 [Compound I-412]",
    "PARAMETER_MEASURED": "IC50",
    "RESULT": "< 400 nM"
  }
]

Input line: What value of measured IC50 is listed for COc1ccc2cnn(C)c2c1NS(=O)(=O)c1cnn(-c2cc(C(C)(C)O)ccn2)c1 [Compound I-135] ?
Output line: < 400 nM

Input line: What value of measured IC50 is listed for CCc1ccc2cnn(C)c2c1NS(=O)(=O)c1cnn(-c2cncc(C(F)(F)F)c2)c1 [Compound I-3] ?
Output line: < 400 nM

Input line: What value of measured IC50 is listed for Cn1ncc2cccc(NS(=O)(=O)c3cnn(-c4cc(Cl)ccn4)c3)c21 [Compound I-86] ?
Output line: < 400 nM

Input line: What value of measured IC50 is listed for COc1ccc2nnn(C)c2c1NS(=O)(=O)c1cnn(-c2ccnc(C(F)(F)F)c2)c1 [Compound I-52] ?
Output line: 1000 to 2500 nM

Input line: What value of measured IC50 is listed for Cn1ncc2cccc(NS(=O)(=O)c3cnn(-c4cc(N5CC(C)(C)C5)ccn4)c3)c21 [Compound I-367] ?
Output line: < 400 nM

Input line: What value of measured IC50 is listed for COc1ncc2cnn(C)c2c1NS(=O)(=O)c1cnn(-c2cc(N3CC(C)C3)ccn2)c1 [Compound I-397] ?
Output line: < 400 nM
